Items are presented alongside their recorded IC50.
- ASSAYED_SYSTEM: acetylcholinesterase (AChE) isolated from Electrophorus electricus (Electrophorus electricus)
- Construct: AChE isolated from Electrophorus electricus; from tissue
- EXPERIMENT_DESCRIPTION: biochemical
- STATED_CONDITIONS: AChE isolated from Electrophorus electricus; read-out: AChE IC50

- COMPOUND: "CC(C)C(=O)N[C@H]1CCC23C[C@@]24[C@@H](CC[C@H]3[C@]1(C)CO)[C@]1(C)C[C@@H](O)[C@H]([C@H](C)N(C)C)[C@@]1(C)C[C@@H]4O (some centres unmarked)"
  IC50: "> 100 µM"
- COMPOUND: "Cc1ccc(S(=O)(=O)O[C@@H]2C[C@@]3(C)[C@@H]4CC[C@@H]5C6(CC[C@H](NC(=O)C(C)C)[C@@]5(C)CO)C[C@@]46C(=O)C[C@]3(C)[C@H]2[C@H](C)N(C)C)cc1 (some centres unmarked)"
  IC50: "> 100 µM"
- COMPOUND: "CC(C)C(=O)N[C@H]1CCC23C[C@]24C(=O)C[C@]2(C)[C@@H]([C@H](C)N(C)C)[C@H](OC(=O)C(C)(C)C)C[C@@]2(C)[C@@H]4CC[C@H]3[C@]1(C)/C=N/C([Si](C)(C)C)[Si](C)(C)C (some centres unmarked)"
  IC50: "> 100 µM"
- COMPOUND: "C[C@@H]([C@H]1[C@H](O)C[C@@]2(C)[C@@H]3CC[C@@H]4C5(CC[C@H](NC(=O)Cc6ccccc6)[C@@]4(C)CO)C[C@@]35C(=O)C[C@]12C)N(C)C (some centres unmarked)"
  IC50: "> 5 µM"
- COMPOUND: "CC[C@H](C)C(=O)N[C@H]1CCC23C[C@@]24[C@@H](CC[C@H]3[C@]1(C)CO)[C@]1(C)C[C@@H](O)[C@H]([C@H](C)N(C)C)[C@@]1(C)C[C@@H]4O (some centres unmarked)"
  IC50: "> 100 µM"

----------
- ASSAYED_SYSTEM: acetylcholinesterase (AChE) isolated from Electrophorus electricus (Electrophorus electricus, UniProt O42275)
- Construct: AChE isolated from Electrophorus electricus; from tissue
- Sequence (O42275 24-633): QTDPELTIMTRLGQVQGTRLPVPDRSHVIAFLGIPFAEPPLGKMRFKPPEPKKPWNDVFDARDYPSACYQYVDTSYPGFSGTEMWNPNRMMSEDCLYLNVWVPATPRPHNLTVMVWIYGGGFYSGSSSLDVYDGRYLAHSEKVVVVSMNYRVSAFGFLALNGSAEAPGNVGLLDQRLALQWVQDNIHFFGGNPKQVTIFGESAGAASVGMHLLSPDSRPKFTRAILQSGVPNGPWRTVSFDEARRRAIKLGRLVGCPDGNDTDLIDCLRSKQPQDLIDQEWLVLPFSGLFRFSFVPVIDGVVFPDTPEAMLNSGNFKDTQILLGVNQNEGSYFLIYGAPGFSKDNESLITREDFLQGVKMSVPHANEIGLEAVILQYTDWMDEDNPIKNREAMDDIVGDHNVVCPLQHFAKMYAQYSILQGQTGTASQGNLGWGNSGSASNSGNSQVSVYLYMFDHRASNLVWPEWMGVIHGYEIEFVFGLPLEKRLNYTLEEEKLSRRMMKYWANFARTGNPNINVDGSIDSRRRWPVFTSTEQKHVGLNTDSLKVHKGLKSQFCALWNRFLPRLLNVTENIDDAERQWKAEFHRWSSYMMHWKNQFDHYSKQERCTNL
- EXPERIMENT_DESCRIPTION: biochemical
- STATED_CONDITIONS: AChE isolated from Electrophorus electricus; read-out: AChE IC50
pIC50: −log10 of the molar value.
REPORTED_METRIC: pIC50

- COMPOUND: "CC(=O)O[C@@H]1C[C@@]2(C)[C@@H]3CC[C@@H]4C5(CC[C@H](NC(=O)C(C)C)[C@@]4(C)CO)C[C@@]35C(=O)C[C@]2(C)[C@H]1[C@H](C)N(C)C (some centres unmarked) [Compound 13]"
  RESULT_VALUE: "< 5.00"
- COMPOUND: "CC(C)C(=O)N[C@H]1CCC23C[C@]24C(=O)C[C@]2(C)[C@@H]([C@H](C)N(C)C)[C@H](O)C[C@@]2(C)[C@@H]4CC[C@H]3[C@]1(C)C=O (some centres unmarked) [Compound 44]"
  RESULT_VALUE: "< 4.00"
- COMPOUND: "C[C@@H]([C@H]1[C@H](O)C[C@@]2(C)[C@@H]3CC[C@@H]4C5(CC[C@H](N)[C@@]4(C)CO)C[C@@]35[C@@H](O)C[C@]12C)N(C)C (some centres unmarked) [Compound 28]"
  RESULT_VALUE: "< 6.00"
- COMPOUND: "CC(=O)OC[C@]1(C)[C@@H](NC(=O)C(C)C)CCC23C[C@]24C(=O)C[C@]2(C)[C@@H]([C@H](C)N(C)C)[C@H](O)C[C@@]2(C)[C@@H]4CC[C@H]31 (some centres unmarked) [Compound 41]"
  RESULT_VALUE: "< 4.00"
- COMPOUND: "CC[C@H](C)C(=O)N[C@H]1CCC23C[C@]24C(=O)C[C@]2(C)[C@@H]([C@H](C)N(C)C)[C@H](O)C[C@@]2(C)[C@@H]4CC[C@H]3[C@]1(C)CNCc1ccccc1 (some centres unmarked) [Compound 62]"
  RESULT_VALUE: "≤ 4.00"
